- Tested on: T-47D breast
- procedure.summary: NCI-60 one-dose screen, 48 h
- test.parameters: 10 µM unless noted
Compounds without any hit were thinned out: in the full panel of roughly 83,000, 20% have a hit. Activity calls are given as the source filed them. How the source made its calls: active means growth percent below 10; inactive means the rest.
Output constraint: value belongs to t (active), f (inactive)

Answered examples (5):
Can you look up the reported call for COc1cc2oc(-c3cccc(C(=O)Nc4ccc(Br)cc4)c3)cc(=O)c2c(OC)c1OC for me?
f

Can you look up the reported call for O=C(/C=C(O)/C=C/c1ccc(SC(F)(F)F)cc1)/C=C/c1ccc(SC(F)(F)F)cc1 for me?
f

Can you look up the reported call for COc1cc(/C=N/O)nc(-c2ccccn2)c1 for me?
f

Can you look up the reported call for CCCCCCCC(=O)OCC/C=C/C1OC1C1OC(=O)/C=C\C=C\C(=O)N(C(C)=O)C(=O)/C=C(/C)CCC2OC2C1OC(=O)NC(C)=O (configuration not stated) for me?
f

Can you look up the reported call for Cc1cc2nc3c4ccc(Br)cc4n(CCN(C)C)c3nc2cc1C for me?
f

---
Can you look up the reported call for c1ccc(-c2cn3c(ccc4ccccc43)n2)cc1 for me?
f

Can you look up the reported call for C=CCn1c(-c2ccc(-c3nc4ccc(C)cc4[nH]3)cc2)n[nH]c1=S for me?
f

Can you look up the reported call for O=C(CCN1CCCC1)Nc1ccc2c(NCCCCc3ccccc3)c3ccccc3nc2c1 for me?
t
